- SYSTEM NAME: UniProt P28845
- Sequence (P28845 whole entry): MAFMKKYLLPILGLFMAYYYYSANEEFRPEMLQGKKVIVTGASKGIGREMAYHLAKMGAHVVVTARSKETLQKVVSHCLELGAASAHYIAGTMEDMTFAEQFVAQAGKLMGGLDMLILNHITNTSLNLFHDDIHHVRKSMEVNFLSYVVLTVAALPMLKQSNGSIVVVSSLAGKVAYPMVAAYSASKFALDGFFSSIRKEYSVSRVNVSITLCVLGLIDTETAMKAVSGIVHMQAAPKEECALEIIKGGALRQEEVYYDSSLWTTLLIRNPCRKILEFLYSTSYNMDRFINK
- PROTOCOL: biochemical
- RUN CONDITIONS: read-out: Average % inhibition at 100 nM
METRIC NAME: inhibition at 0.1 µM (%)
Give the value in % but do not write % after it.

[in] Under UniProt P28845: inhibition at 0.1 µM value of Cc1cc(-c2ccc([C@H](C)N3CC[C@](CCO)(c4ccccc4)OC3=O)cc2)ccn1 [EXAMPLE 96] ?
[out] 99.8

[in] Next compound up: C[C@@H](c1ccc(-c2cnc(C(=O)NC3CC3)nc2)cc1)N1CC[C@](CC(C)(C)C#N)(c2ccccc2)OC1=O [EXAMPLE 16]
[out] 97.9

[in] Next compound up: Cc1cccc(-c2ccc([C@H](C)N3CC[C@](CCCO)(c4ccccc4)OC3=O)cc2)n1 [EXAMPLE 90]
[out] 96.7

[in] Next compound up: C[C@@H](c1ccc(-c2cncc(C(=O)N(C)C)c2)cc1)N1CC[C@](CCCO)(c2ccc(F)cc2)OC1=O [EXAMPLE 72]
[out] 64.8

[in] Next compound up: Cc1cc(-c2ccc([C@H](C)N3CC[C@](CCO)(c4ccc(F)cc4)OC3=O)cc2)ccn1 [EXAMPLE 75]
[out] 97.7

[in] Next compound up: Cc1ncc(-c2ccc([C@H](C)N3CC[C@](CCc4nnc(C)o4)(c4ccccc4)OC3=O)cc2)cn1 [EXAMPLE 18]
[out] 13.7

[in] Next compound up: Cc1cc(-c2ccc([C@H](C)N3CC[C@](CCCN4CCCS4(=O)=O)(c4ccccc4)OC3=O)cc2)ccn1 [EXAMPLE 106]
[out] 79.6

[in] Next compound up: Cc1cc(-c2ccc([C@H](C)N3CC[C@](CCN4CCCS4(=O)=O)(c4ccccc4)OC3=O)cc2)ccn1 [EXAMPLE 105]
[out] 86.3

[in] Next compound up: C[C@@H](c1ccc(-c2ccccn2)cc1)N1CC[C@](CCCNS(C)(=O)=O)(c2ccc(F)cc2)OC1=O [EXAMPLE 61]
[out] 96.2

[in] Next compound up: Cc1nccc(-c2ccc([C@H](C)N3CC[C@](CC(C)(C)O)(c4ccccc4)OC3=O)cc2)n1 [EXAMPLE 135]
[out] 97.3

[in] Next compound up: C=CC[C@]1(c2ccc(F)cc2)CCN([C@@H](C)c2ccc(-c3nnc(C)s3)cc2)C(=O)O1 [EXAMPLE 39]
[out] 73.6

[in] Next compound up: C[C@@H](c1ccc(-c2cnc(C(=O)NC(C)(C)C)nc2)cc1)N1CC[C@](CC(C)(C)O)(c2ccccc2)OC1=O [EXAMPLE 17]
[out] 94

[in] Next compound up: COc1ccc(-c2ccc([C@H](C)N3CC[C@](CCC(N)=O)(c4ccccc4)OC3=O)cc2)cn1 [EXAMPLE 52]
[out] 94.5

[in] Next compound up: C[C@@H](c1ccc(-c2cncc(C#N)n2)cc1)N1CC[C@](CC(C)(C)O)(c2ccc(F)cc2)OC1=O [EXAMPLE 157]
[out] 96.3

[in] Next compound up: Cc1ccc(-c2ccc([C@H](C)N3CC[C@](CC(C)(C)C#N)(c4ccccc4)OC3=O)cc2)nn1 [EXAMPLE 166]
[out] 96.5
